Hello, the source for this data is patent US20230143604A1, in case you need it.

Recorded Human GLP1R cAMP EC50, HEK293T by entry
- measurementTarget: full-length human GLP-1R with an N-terminal FLAG tag (human, UniProt P43220 24-463)
- testDetails: cell-based or functional assay
Starred links: 1 amine or outer side, 2 acyl side, 3 side chain; linkers in the order of their positions; H or OH if unused. Non-standard residues stand in square brackets, D forms with d. Groups on a side chain read outwards from the residue. No end group written: not given here. *: point of attachment. C20 diacid = O=C(O)CCCCCCCCCCCCCCCCCCC(=O)*; C18 diacid = O=C(O)CCCCCCCCCCCCCCCCC(=O)*; C17 diacid = O=C(O)CCCCCCCCCCCCCCCC(=O)*; γGlu = O=C(O)[C@H](CCC(=O)[*:2])N[*:1]; NMeY = CN[C@@H](Cc1ccc(O)cc1)C(=O)O; AEEA = NCCOCCOCC(=O)O; Aib = CC(C)(N)C(=O)O
Unit nM implied. Number only.

[NMeY][Aib]EGTFISDYSI[Aib]LDR[Aib]AQ[Aib]K([AEEA-AEEA-γGlu-γGlu-C20 diacid])FVNWLLAQRPSSGAPPPS-NH2 [Compound No. 101]	39.8

Req: Reported Human GLP1R cAMP EC50, HEK293T for [NMeY][Aib]EGTFISDYSI[Aib]LDR[Aib]K([2OEGgEgE-C18 diacid])Q[Aib]NFVNWLLAQRG-OH [Compound No. 74] : what is it?
Resp: 468

Req: // Human GLP1R cAMP EC50, HEK293T lookup, key: YXEGTFISDYSIXXDSXAQADFVNWLLAQRG (N-terminus H; Aib at 2,13,17; Lys(G5-C18 diacid) at 14; C-terminal OH) [Compound No. 152]
Resp: 33.1

Req: Give its Human GLP1R cAMP EC50, HEK293T value. Item: H-Y[Aib]EGTFISDYSIALDKIAQQK([AEEA-AEEA-γGlu-γGlu-C17 diacid])FVEWLLAQRPSSGAPPPS-OH [Compound No. 134]
Resp: 170

Req: Sample [NMeY][Aib]EGTFISDYSIALDRK([AEEA-AEEA-γGlu-C18 diacid])AQ[Aib]DFVNWLLAQRPSSGAPPPS-NH2 [Compound No. 23] — what was its Human GLP1R cAMP EC50, HEK293T?
Resp: 50.1

Req: Sample YXEGTFISDYSIAXDRXAQXDFVNWLLAQSPSSGAPPPS (N-methyl Tyr 1; Aib at 2,17,20; Lys(G5-C18 diacid) at 14; C-terminal NH2) [Compound No. 38] — what was its Human GLP1R cAMP EC50, HEK293T?
Resp: 45.7
